- Read-out: Vascular cell adhesion molecule 1 (VCAM1), VCAM1 (gene 7412)
- experiment.summary: BSK_CASM3C_VCAM1: BioMAP Diversity Plus: CASM3C Assay for Vascular cell adhesion molecule 1 (VCAM1) Biomarker Activity (AID 2283055);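 note: VCAM-1 protein level quantified by ELISA on the cells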
- test.settings: primary human coronary artery smooth muscle cells; actives raise or lower the signal
Calls of active or inactive are those of the source. Rule for the calls: active = hit-call score of the fitted dose curve at least 0.9, where 1 is the maximum; inactive = score below 0.9.
reported.endpoint: AC50

Use the examples below as a reference point.
| molecule | AC50 |
| --- | --- |
| CCc1cc(C)cc(CC)c1-c1c(OC(=O)C(C)(C)C)n2n(c1=O)CCOCC2 | inactive |
| CCC(C)c1cc([N+](=O)[O-])cc([N+](=O)[O-])c1OC(=O)C=C(C)C (stereo not given) | 20.5 µM (active) |
| CCCC[N+](CCCC)(CCCC)CCCC | inactive |
| O=c1c2ccccc2c(=O)c2c1cc(Cl)c1[nH]c3c([nH]c12)c(Cl)cc1c(=O)c2ccccc2c(=O)c13 | inactive |

// next entry
The molecule listed as O=C1C(Cl)=C(Cl)C(=O)C(Cl)=C1Cl shows AC50 equal to 15.3 µM (active)

---

- experiment.summary: ATG_Sox_CIS: Attagene CIS-FACTORIAL HepG2 Assay for human SRY-box transcription factor (SOX) (AID 2282960)
- test.settings: HepG2 Attagene cis-factorial SOX reporter, mRNA; actives raise or lower the signal
The source made the active and inactive calls. The calls were made as follows: active = hit-call score of the fitted dose curve at least 0.9, where 1 is the maximum; inactive = score below 0.9.
Your response should consist of one outcome taken from active, inactive

Answered cases to consult:
| compound | label |
| --- | --- |
| O=C(O)CCl | inactive |
| COc1ccc(CO)cc1 | inactive |
| C[N+](C)(C)CC(=O)[O-] | inactive |
| CC1(C)[C@H](C(=O)O[C@H](C#N)c2cccc(Oc3ccccc3)c2)[C@@H]1C=C(Br)Br | inactive |

**Q:** Identify the outcome logged in this assay for the compound shown: C[N+](=O)[O-]
**A:** inactive

**Q:** Short answer needed: outcome of this test for N#CC(c1ccccc1)c1ccccc1 ?
**A:** inactive

---

- Read-out: Macrophage colony-stimulating factor (MCSF), CSF1 (gene 1435)
- experiment.summary: BSK_LPS_MCSF: BioMAP Diversity Plus: LPS Assay for Macrophage colony-stimulating factor (MCSF) Biomarker Activity (AID 2283083)
- test.settings: primary human HUVEC with PBMC; actives raise or lower the signal
Active and inactive are the calls of the source. The calls were made as follows: active = hit-call score of the fitted dose curve at least 0.9, where 1 is the maximum; inactive = score below 0.9.

| compound | AC50 |
| --- | --- |
| CC(C)(c1cc(Cl)c(O)c(Cl)c1)c1cc(Cl)c(O)c(Cl)c1 | 17.2 µM (active) |
| CC(C)(C)C(O)C(Oc1ccc(-c2ccccc2)cc1)n1cncn1 (centres undefined) | inactive |
| O=[N+]([O-])C=Cc1ccccc1 | 10.8 µM (active) |
| c1ccc(Nc2ccc3ccccc3c2)cc1 | inactive |

---

- target.or.test.system: Androgen receptor (Homo sapiens) (UniProt P10275)
- Sequence (P10275 whole entry, looked up): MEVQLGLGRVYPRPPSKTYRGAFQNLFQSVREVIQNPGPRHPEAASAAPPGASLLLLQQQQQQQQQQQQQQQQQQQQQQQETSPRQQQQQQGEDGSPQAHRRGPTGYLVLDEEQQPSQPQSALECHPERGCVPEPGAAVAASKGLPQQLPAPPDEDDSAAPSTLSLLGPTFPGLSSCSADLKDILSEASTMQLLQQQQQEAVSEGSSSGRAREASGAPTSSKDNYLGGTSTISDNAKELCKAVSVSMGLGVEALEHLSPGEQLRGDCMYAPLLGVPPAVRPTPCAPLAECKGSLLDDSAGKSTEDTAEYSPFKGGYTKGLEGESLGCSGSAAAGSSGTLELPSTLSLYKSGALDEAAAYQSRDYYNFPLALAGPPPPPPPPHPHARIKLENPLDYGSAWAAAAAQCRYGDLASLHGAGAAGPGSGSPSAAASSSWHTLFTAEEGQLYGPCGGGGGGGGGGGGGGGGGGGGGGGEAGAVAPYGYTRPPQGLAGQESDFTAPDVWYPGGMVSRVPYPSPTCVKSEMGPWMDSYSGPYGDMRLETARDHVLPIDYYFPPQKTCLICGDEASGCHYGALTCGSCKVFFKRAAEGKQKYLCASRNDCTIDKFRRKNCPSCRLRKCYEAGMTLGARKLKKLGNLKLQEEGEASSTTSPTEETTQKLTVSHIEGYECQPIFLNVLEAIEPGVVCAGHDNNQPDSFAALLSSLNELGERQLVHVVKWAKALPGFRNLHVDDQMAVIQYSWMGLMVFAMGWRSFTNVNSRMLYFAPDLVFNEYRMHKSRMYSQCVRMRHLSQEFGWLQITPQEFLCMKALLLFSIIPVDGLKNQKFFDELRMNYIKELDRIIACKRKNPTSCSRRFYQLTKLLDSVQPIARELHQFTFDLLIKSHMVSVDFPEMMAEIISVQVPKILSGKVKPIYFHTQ
- experiment.summary: ATG_AR_TRANS: Attagene TRANS-FACTORIAL HepG2 Assay for human Androgen Receptor (AR) (AID 2282973)
- test.settings: HepG2 Attagene TRANS-FACTORIAL AR reporter transcription
Results filed as inconclusive are left out. Active and inactive are the calls of the source. Rule for the calls: active = hit-call score of the fitted dose curve at least 0.9, where 1 is the maximum; inconclusive = response in the unintended direction; inactive = score below 0.9.
Returns: one label drawn from True (active), False (inactive)

Example results:
| molecule | target.or.test.system | label |
| --- | --- | --- |
| O=C(Cl)c1ccc(Cl)cc1Cl | Androgen receptor (Homo sapiens) (UniProt P10275) | False |
| CO[Si](CCC1CCC2OC2C1)(OC)OC (configuration not stated) | Androgen receptor (Homo sapiens) (UniProt P10275) | False |
| Oc1ccc2c(c1)-c1ccccc1C2 | Androgen receptor (Homo sapiens) (UniProt P10275) | False |
| Cc1nn(C)c(Oc2ccccc2)c1C=NOCc1ccc(C(=O)OC(C)(C)C)cc1 | Androgen receptor (Homo sapiens) (UniProt P10275) | False |
| FC(F)(F)C(F)(F)C(F)(F)C(F)(F)C(F)(F)C(F)(F)C(F)(F)C(F)(F)F | Androgen receptor (Homo sapiens) (UniProt P10275) | False |

**Q:** // outcome(item) with item = O=C1CCCCCCCCCCCC(=O)OCCO1
**A:** False

**Q:** Please let me know the test result on file for CCCCCCCCCC(C)=O .
**A:** False

**Q:** Record request — test call for NC(=O)C(F)(F)C(F)(F)C(F)(F)F
**A:** False

**Q:** Tell me the assay call for CCOC(=O)[C@@H](C)Oc1ccc(Oc2nc3ccc(Cl)cc3o2)cc1 please.
**A:** False

**Q:** Outcome? Cc1cc(CCN2CCN(c3nsc4ccccc34)CC2)cc2c1NC(=O)CC2(C)C
**A:** False

**Q:** GET /call?item= CC(=O)C1(C)CC2=C(CCCC2(C)C)CC1C (configuration not stated) returns the recorded outcome of this test.
**A:** True

**Q:** What is the recorded call for this molecule in the test? CC(C=O)Cc1ccc(C(C)(C)C)cc1 (configuration not stated)
**A:** False
